# run.parameters: 240 min
measurement.type: Dissolved concentration after 240 min (µg/mL)
Answer with a number only, understood to be in µg/mL.

Query: Report Dissolved concentration after 240 min for `CC1(C)c2cc(C3CCN(C4COC4)CC3)ccc2C(=O)c2c1[nH]c1cc(C#N)ccc21` please.
Response: 3.8

Query: Fill in the blank: the reported Dissolved concentration after 240 min of `CC1(C)c2cc(N3CCN(C4COC4)CC3)c(Br)cc2C(=O)c2c1[nH]c1cc(C#N)ccc21` is ____.
Response: 4.8

Query: Given the molecule `CC1(C)c2cc(N3CCN(C4CC4)CC3)c(Br)cc2C(=O)c2c1[nH]c1cc(C#N)ccc21` , what is its reported Dissolved concentration after 240 min?
Response: 3.7

Query: Give its Dissolved concentration after 240 min value. Item: `CCc1cc2c(cc1N1CCN(C3COC3)CC1)C(C)(C)c1[nH]c3cc(C#N)ccc3c1C2=O`
Response: 0.4

----------
# run.parameters: 10 min
Can you tell me Dissolved concentration after 10 min for the items I'm about to list?
Numbers only here, please. The scale is µg/mL.

Query: Any idea what Dissolved concentration after 10 min was measured for CC1(C)c2cc(C3CCN(C4COC4)CC3)ccc2C(=O)c2c1[nH]c1cc(C#N)ccc21 [Comparative example 4] ?
Response: 8.3

Query: # get_value(readout='Dissolved concentration after 10 min', item= CC1(C)c2cc(N3CCN(C4CC4)CC3)c(Br)cc2C(=O)c2c1[nH]c1cc(C#N)ccc21 [Comparative example 6] )
Response: 18.2

Query: What does the record list as Dissolved concentration after 10 min for CC1(C)c2cc(N3CCN(C4COC4)CC3)c(Br)cc2C(=O)c2c1[nH]c1cc(C#N)ccc21 [Comparative example 5] ?
Response: 4.4

Query: Tell me the measured Dissolved concentration after 10 min of CCc1cc2c(cc1N1CCN(C3COC3)CC1)C(C)(C)c1[nH]c3cc(C#N)ccc3c1C2=O [Comparative example 7] , please.
Response: 0.4

Each recorded value in this set is attributed to patent US20250114327A1.
